pIC50: −log10 of the molar value.
Below, pIC50 values reported for Prostaglandin G/H synthase 2 (Mus musculus, UniProt Q05769) across several publications.
EXPERIMENTAL_READOUT: pIC50

O=C(NS(=O)(=O)c1ccc(Br)cc1)c1ccncc1	5.11
O=C(NS(=O)(=O)c1ccc(F)cc1)c1ccccn1	5.20
Fc1ccc(-c2[nH]c(-c3ccc(F)cc3)c3c2CCCC3)cc1	8.77
CON(C)C1=NC(=O)/C(=C/c2cc(C(C)(C)C)c(O)c(C(C)(C)C)c2)S1	5.80

I. O=C(NS(=O)(=O)c1ccc(Br)cc1)c1cccnc1
II. CC(=O)c1ccc(C2=C(c3ccc(S(N)(=O)=O)cc3)OC(C)(C)C2=O)cc1
IN: pIC50 comparison. Which is larger, I or II ? Output the label that corresponds to your choice.
OUT: II
(II: 7.47, I: 5.31)
